Assay: In vivo biodistribution of radiolabeled complexes in normal athymic mice
Conditions: non-tumor bearing mice, 0.50 hr; ± SD
Procedure: The in vivo stability of the radiolabeled complexes was evaluated by performing biodistribution studies in normal athymic mice. Selected organs and the blood were harvested at five time points, 0.5, 1, 4, 8, and 24 h post-injection and the radioactivity measured. […] C-NE3TA radiolabeled with ^153Gd was almost completely cleared from blood, liver, spleen, lung, heart, and femur in less than 4 hours, and radioactivity level in the kidney was 0.16%±0.11 ID/g at 24 hour post-injection (Table 9). […]

Compound: O=C(O)CNC(Cc1ccc([N+](=O)[O-])cc1)CN1CCN(CC(=O)O)CCN(CC(=O)O)CC1.[90Y] (stereo not shown) [^90Y-C-NE3TA]
percent injected dose per gram, Blood: 1.86 ± 1.92 % ID/g
//
Compound: O=C([O-])CNC(Cc1ccc([N+](=O)[O-])cc1)CN1CCN(CC(=O)[O-])CCN(CC(=O)[O-])CC1.[Bi+3] (stereo not shown)
percent injected dose per gram, Blood: 0.46 ± 0.18 % ID/g
//
Compound: O=C(O)CNC(Cc1ccc([N+](=O)[O-])cc1)CN1CCN(CC(=O)O)CCN(CC(=O)O)CC1.[177Lu] (stereo not shown) [^177Lu-C-NE3TA]
percent injected dose per gram, Blood: 0.93 ± 0.30 % ID/g
//
Compound: O=C(O)CNC(Cc1ccc([N+](=O)[O-])cc1)CN1CCN(CC(=O)O)CCN(CC(=O)O)CC1.[153Gd] (stereo not shown) [^153Gd-C-NE3TA]
percent injected dose per gram, Blood: 1.41 ± 0.57 % ID/g

---

tested on: Hela cells; assay: Antiproliferative activity, MTS assay, HeLa cells; format: cell-based, Human; settings: Homo sapiens; 72 h incubation, MTS
Rule: IC50 below 8 µM gives true, anything at or above gives false.

Compound: CC(CCC(=O)Nc1ccc(CC(CN2CCN(CC(=O)O)CCN(CC(=O)O)CC2)NCC(=O)O)cc1)C1CCC2C3C(O)CC4CC(O)CCC4(C)C3CC(O)C12C (stereo not drawn) [CA-NE3TA]
Assigned class: false

Compound: O=C(O)CN1CCN(CCN(CC(=O)O)Cc2ccc([N+](=O)[O-])cc2)CCN(CC(=O)O)CC1 [N-NE3TA]
Assigned class: false

Compound: CC(CCC(=O)Nc1ccc(CC(CN2CCN(CC(=O)O)CCN(CC(=O)O)CC2)NCC(=O)O)cc1)C1CCC2C3C(O)CC4CC(O)CCC4(C)C3CCC12C (stereo not drawn) [CDCA-NE3TA]
Assigned class: false

Compound: CC(CCC(=O)Nc1ccc(CC(CN2CCN(CC(=O)O)CCN(CC(=O)O)CC2)NCC(=O)O)cc1)C1CCC2C3CCC4CC(O)CCC4(C)C3CC(O)C12C (stereo not drawn) [DCA-NE3TA]
Assigned class: true

Compound: O=C(O)CNC(Cc1ccc([N+](=O)[O-])cc1)CN1CCN(CC(=O)O)CCN(CC(=O)O)CC1 (stereo not drawn) [C-NE3TA]
Assigned class: true

Compound: O=C(O)CNCCN1CCN(CC(=O)O)CCN(CC(=O)O)CC1 [NE3TA]
Assigned class: true

---

Recorded measurements of percent injected dose per gram, Lung, one per entry
assay: In vivo biodistribution of radiolabeled complexes in normal athymic mice; conditions: non-tumor bearing mice, 24.00 hr; ± SD
Endpoint name: percent injected dose per gram, Lung (% ID/g)

Molecule: O=C(O)CNC(Cc1ccc([N+](=O)[O-])cc1)CN1CCN(CC(=O)O)CCN(CC(=O)O)CC1.[153Gd] (stereo not shown) [^153Gd-C-NE3TA]
Numeric value: 0.01
--
Molecule: O=C(O)CNC(Cc1ccc([N+](=O)[O-])cc1)CN1CCN(CC(=O)O)CCN(CC(=O)O)CC1.[177Lu] (stereo not shown) [^177Lu-C-NE3TA]
Numeric value: 0.07
--
Molecule: O=C([O-])CNC(Cc1ccc([N+](=O)[O-])cc1)CN1CCN(CC(=O)[O-])CCN(CC(=O)[O-])CC1.[Bi+3] (stereo not shown) [^205/6Bi-C-NE3TA]
Numeric value: 0.09
--
Molecule: O=C(O)CNC(Cc1ccc([N+](=O)[O-])cc1)CN1CCN(CC(=O)O)CCN(CC(=O)O)CC1.[90Y] (stereo not shown) [^90Y-C-NE3TA]
Numeric value: 0.23

---

assay: In vivo biodistribution of radiolabeled complexes in normal athymic mice; conditions: non-tumor bearing mice, 8.00 hr; ± SD
Endpoint name: percent injected dose per gram, Heart (% ID/g)

Compound: O=C(O)CNC(Cc1ccc([N+](=O)[O-])cc1)CN1CCN(CC(=O)O)CCN(CC(=O)O)CC1.[153Gd] (stereo not shown) [^153Gd-C-NE3TA]
Endpoint name: percent injected dose per gram, Heart
Numeric value: 0.01
//
Compound: O=C([O-])CNC(Cc1ccc([N+](=O)[O-])cc1)CN1CCN(CC(=O)[O-])CCN(CC(=O)[O-])CC1.[Bi+3] (stereo not shown)
Endpoint name: percent injected dose per gram, Heart
Numeric value: 0.09
//
Compound: O=C(O)CNC(Cc1ccc([N+](=O)[O-])cc1)CN1CCN(CC(=O)O)CCN(CC(=O)O)CC1.[90Y] (stereo not shown) [^90Y-C-NE3TA]
Endpoint name: percent injected dose per gram, Heart
Numeric value: 0.05
//
Compound: O=C(O)CNC(Cc1ccc([N+](=O)[O-])cc1)CN1CCN(CC(=O)O)CCN(CC(=O)O)CC1.[177Lu] (stereo not shown) [^177Lu-C-NE3TA]
Endpoint name: percent injected dose per gram, Heart
Numeric value: 0.10

---

Assay: In vivo biodistribution of radiolabeled complexes in normal athymic mice
Conditions: non-tumor bearing mice, 0.50 hr; ± SD
Method: The in vivo stability of the radiolabeled complexes was evaluated by performing biodistribution studies in normal athymic mice. Selected organs and the blood were harvested at five time points, 0.5, 1, 4, 8, and 24 h post-injection and the radioactivity measured. […] C-NE3TA radiolabeled with ^153Gd was almost completely cleared from blood, liver, spleen, lung, heart, and femur in less than 4 hours, and radioactivity level in the kidney was 0.16%±0.11 ID/g at 24 hour post-injection (Table 9). […]

Molecule: O=C(O)CNC(Cc1ccc([N+](=O)[O-])cc1)CN1CCN(CC(=O)O)CCN(CC(=O)O)CC1.[90Y] (stereo not shown) [^90Y-C-NE3TA]
percent injected dose per gram, Heart (% ID/g): 0.79

Molecule: O=C([O-])CNC(Cc1ccc([N+](=O)[O-])cc1)CN1CCN(CC(=O)[O-])CCN(CC(=O)[O-])CC1.[Bi+3] (stereo not shown)
percent injected dose per gram, Heart (% ID/g): 0.36

Molecule: O=C(O)CNC(Cc1ccc([N+](=O)[O-])cc1)CN1CCN(CC(=O)O)CCN(CC(=O)O)CC1.[153Gd] (stereo not shown) [^153Gd-C-NE3TA]
percent injected dose per gram, Heart (% ID/g): 0.43

Molecule: O=C(O)CNC(Cc1ccc([N+](=O)[O-])cc1)CN1CCN(CC(=O)O)CCN(CC(=O)O)CC1.[177Lu] (stereo not shown) [^177Lu-C-NE3TA]
percent injected dose per gram, Heart (% ID/g): 0.37

---

Recorded measurements of percent injected dose per gram, Spleen, one per entry
test: In vivo biodistribution of radiolabeled complexes in normal athymic mice; conditions: non-tumor bearing mice, 8.00 hr; ± SD

Compound: O=C(O)CNC(Cc1ccc([N+](=O)[O-])cc1)CN1CCN(CC(=O)O)CCN(CC(=O)O)CC1.[177Lu] (stereo not shown) [^177Lu-C-NE3TA]
percent injected dose per gram, Spleen [% ID/g]: 0.13
//
Compound: O=C(O)CNC(Cc1ccc([N+](=O)[O-])cc1)CN1CCN(CC(=O)O)CCN(CC(=O)O)CC1.[90Y] (stereo not shown) [^90Y-C-NE3TA]
percent injected dose per gram, Spleen [% ID/g]: 0.07
//
Compound: O=C([O-])CNC(Cc1ccc([N+](=O)[O-])cc1)CN1CCN(CC(=O)[O-])CCN(CC(=O)[O-])CC1.[Bi+3] (stereo not shown)
percent injected dose per gram, Spleen [% ID/g]: 0.12
//
Compound: O=C(O)CNC(Cc1ccc([N+](=O)[O-])cc1)CN1CCN(CC(=O)O)CCN(CC(=O)O)CC1.[153Gd] (stereo not shown) [^153Gd-C-NE3TA]
percent injected dose per gram, Spleen [% ID/g]: 0.02

---

experiment: In vivo biodistribution of radiolabeled complexes in normal athymic mice; settings: non-tumor bearing mice, 4.00 hr; ± SD
Endpoint name: percent injected dose per gram, Kidney (% ID/g)

Molecule: O=C(O)CNC(Cc1ccc([N+](=O)[O-])cc1)CN1CCN(CC(=O)O)CCN(CC(=O)O)CC1.[177Lu] (stereo not shown) [^177Lu-C-NE3TA]
Value units: % ID/g
Numeric value: 1.34
//
Molecule: O=C(O)CNC(Cc1ccc([N+](=O)[O-])cc1)CN1CCN(CC(=O)O)CCN(CC(=O)O)CC1.[153Gd] (stereo not shown) [^153Gd-C-NE3TA]
Value units: % ID/g
Numeric value: 0.52
//
Molecule: O=C([O-])CNC(Cc1ccc([N+](=O)[O-])cc1)CN1CCN(CC(=O)[O-])CCN(CC(=O)[O-])CC1.[Bi+3] (stereo not shown)
Value units: % ID/g
Numeric value: 3.42
//
Molecule: O=C(O)CNC(Cc1ccc([N+](=O)[O-])cc1)CN1CCN(CC(=O)O)CCN(CC(=O)O)CC1.[90Y] (stereo not shown) [^90Y-C-NE3TA]
Value units: % ID/g
Numeric value: 0.74
